Assay system: UniProtKB P30542
Sequence (P30542 whole entry): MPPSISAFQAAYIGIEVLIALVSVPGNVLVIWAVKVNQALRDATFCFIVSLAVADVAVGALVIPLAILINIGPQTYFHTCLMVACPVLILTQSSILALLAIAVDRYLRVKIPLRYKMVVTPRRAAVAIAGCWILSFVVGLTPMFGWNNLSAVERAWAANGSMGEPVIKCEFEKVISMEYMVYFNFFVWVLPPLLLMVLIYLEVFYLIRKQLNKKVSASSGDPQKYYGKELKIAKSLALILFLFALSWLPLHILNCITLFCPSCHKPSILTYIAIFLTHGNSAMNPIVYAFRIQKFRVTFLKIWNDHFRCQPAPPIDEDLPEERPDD
Test readout: pIC50
# reply with the number alone; pIC50 is -log10 of concentration in mol/L

The compound CCCn1c(=O)c2nc(C3CCCCC3)[nH]c2n(CCCCCc2ccc(S(=O)(=O)F)cc2)c1=O , when measured on UniProtKB P30542, yielded pIC50 of 7.00

The compound CCCn1c(=O)c2[nH]c(C3CCCCC3)nc2n(Cc2ccc(S(=O)(=O)F)cc2)c1=O , when measured on UniProtKB P30542, yielded pIC50 of 6.78

The compound CCCn1c(=O)c2nc(C3CCCCC3)[nH]c2n(CCCNC(=O)c2ccc(S(=O)(=O)F)cc2)c1=O , when measured on UniProtKB P30542, yielded pIC50 of 7.60

The compound CCCn1c(=O)c2[nH]c(C3CCCCC3)nc2n(CCCc2ccc(S(=O)(=O)F)cc2)c1=O , when measured on UniProtKB P30542, yielded pIC50 of 6.95

* * *

Collected pIC50 values appear next to each entry.
Assay system: Adenosine receptor A2a (Rattus norvegicus)
Sequence (P30543 whole entry): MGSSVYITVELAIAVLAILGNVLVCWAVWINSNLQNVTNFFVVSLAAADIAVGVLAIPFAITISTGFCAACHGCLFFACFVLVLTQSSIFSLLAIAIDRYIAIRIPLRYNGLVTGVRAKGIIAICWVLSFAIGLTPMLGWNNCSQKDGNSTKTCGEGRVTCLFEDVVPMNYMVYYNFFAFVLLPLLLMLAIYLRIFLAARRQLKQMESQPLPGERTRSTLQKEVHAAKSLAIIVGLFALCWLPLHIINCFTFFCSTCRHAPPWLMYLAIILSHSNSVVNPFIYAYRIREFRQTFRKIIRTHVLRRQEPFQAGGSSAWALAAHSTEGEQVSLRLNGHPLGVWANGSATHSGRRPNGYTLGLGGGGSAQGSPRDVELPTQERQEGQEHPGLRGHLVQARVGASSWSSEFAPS
# reply with the number alone; pIC50 is -log10 of concentration in mol/L

[
  {
    "Line notation": "CCCn1c(=O)c2nc(C3CCCC3)[nH]c2n(CCCNC(=O)c2ccc(S(=O)(=O)F)cc2)c1=O",
    "pIC50": 8.55
  }
]

The compound CCCn1c(=O)c2[nH]c(C3CCCC3)nc2n(CCCOC(=O)c2ccc(S(=O)(=O)F)cc2)c1=O , when measured on Adenosine receptor A2a (Rattus norvegicus), yielded pIC50 of 8.92

* * *

Assay system: Adenosine receptor A2a (Rattus norvegicus)
Test readout: Kd (nM)
Reply with just the number (in nM).

[
  {
    "Line notation": "CCCn1c(=O)c2nc(C3CCCC3)[nH]c2n(CCCNC(=O)c2ccc(S(=O)(=O)F)cc2)c1=O",
    "Uom": "nM",
    "Result": 0.34
  }
]

Below: the item to evaluate.
The value of Kd measured for the molecule CCCn1c(=O)c2[nH]c(C3CCCC3)nc2n(CCCOC(=O)c2ccc(S(=O)(=O)F)cc2)c1=O turned out to be 0.23

* * *

Values of pIC50 reported for Adenosine receptor A2a (Rattus norvegicus) appear below.
pIC50: −log10 of the molar value.

Before answering, review these 2 worked examples.
[
  {
    "Line notation": "CCCn1c(=O)c2nc(C3CCCCC3)[nH]c2n(CCCCCc2ccc(S(=O)(=O)F)cc2)c1=O",
    "Test readout": "pIC50",
    "Result": "< 8.00"
  },
  {
    "Line notation": "CCCn1c(=O)c2[nH]c(C3CCCCC3)nc2n(Cc2ccc(S(=O)(=O)F)cc2)c1=O",
    "Test readout": "pIC50",
    "Result": "< 8.00"
  }
]

The compound CCCn1c(=O)c2[nH]c(C3CCCCC3)nc2n(CCCc2ccc(S(=O)(=O)F)cc2)c1=O , when measured on Adenosine receptor A2a (Rattus norvegicus), yielded pIC50 of < 8.00
